# credit: PubChem BioAssay (EPA / NIEHS)

read-out: Macrophage colony-stimulating factor (MCSF), CSF1 (gene 1435); assay: BSK_LPS_MCSF: BioMAP Diversity Plus: LPS Assay for Macrophage colony-stimulating factor (MCSF) Biomarker Activity (AID 2283083); details: primary human HUVEC with PBMC; actives raise or lower the signal
Activity calls are given as the source filed them. Rule for the calls: active = hit-call score of the fitted dose curve at least 0.9, where 1 is the maximum; inactive = score below 0.9.
measured-quantity: AC50

Look over these answered cases.
>>> reported_value("c1ccc2cc(Nc3ccc(Nc4ccc5ccccc5c4)cc3)ccc2c1")
"inactive"
>>> reported_value("O=C1OC2(c3ccccc31)c1ccc(O)c(Br)c1Oc1c2ccc(O)c1Br")
"20 µM (active)"
>>> reported_value("CCCCCCC(CO)CCCC (stereo not drawn)")
"inactive"
>>> reported_value("CCCCCCCCCCCCCCCC(=O)OC/C=C(C)/C=C/C=C(C)/C=C/C1=C(C)CCCC1(C)C")
"inactive"
>>> reported_value("c1ccc(Oc2ccccc2)cc1")
"inactive"
>>> reported_value("CS(=O)(=O)c1ccc(C2=C(c3ccccc3)C(=O)OC2)cc1")
"inactive"
>>> reported_value("CC(CN=Cc1ccccc1O)N=Cc1ccccc1O (stereo not drawn)")
"inactive"
>>> reported_value("IC(I)I")
"inactive"
>>> reported_value("CN(c1nccc(=O)[nH]1)C1CCN(c2nc3ccccc3n2Cc2ccc(F)cc2)CC1")
"inactive"
>>> reported_value("CN(C)C(=S)SC(=S)N(C)C")
"inactive"

Dear colleague, I am looking for the recorded AC50 of the following compound: `CCCCOC(=O)CCCCCCCC(=O)OCCCC`
inactive

Dear colleague, I am looking for the recorded AC50 of the following compound: `C=C(C)[C@H]1CC=C(C)C(=O)C1`
inactive

Dear colleague, I am looking for the recorded AC50 of the following compound: `CCCCCC(C=O)=Cc1ccccc1`
33.3 µM (active)

###

experiment: ATG_AP_1_CIS: Attagene CIS-FACTORIAL HepG2 Assay for human Activator Protein 1 (AP-1) (AID 2282931); details: HepG2 Attagene cis-factorial AP-1 reporter mRNA; actives raise or lower the signal
The source made the active and inactive calls. How the source made its calls: active means hit-call score of the fitted dose curve at least 0.9, where 1 is the maximum; inactive means score below 0.9.
// allowed return values: active, inactive

Hello, I am checking results. What call was entered for `CCCCCCCCCCCCS(=O)(=O)Cl` ?
inactive

Hello, I am checking results. What call was entered for CCCC(=O)C(CC)Sc1ccoc1C (configuration not stated) ?
active

Hello, I am checking results. What call was entered for `CC(C)CCOC(=O)c1ccccc1` ?
inactive

Hello, I am checking results. What call was entered for COC(CC(C)CCCC(C)(C)O)OC (configuration not stated) ?
inactive

Hello, I am checking results. What call was entered for `CC(C)(CO)[C@@H](O)C(=O)NCCC(=O)O` ?
inactive

Hello, I am checking results. What call was entered for CCCCCCC(CO)CCCC (configuration not stated) ?
inactive

Hello, I am checking results. What call was entered for CC(=O)C1(C)CC2=C(CCCC2(C)C)CC1C (configuration not stated) ?
active

Hello, I am checking results. What call was entered for `O=C(Nc1ccc2c(c1)Cc1ccccc1-2)C(F)(F)F` ?
inactive

Hello, I am checking results. What call was entered for `Nc1c(S(=O)(=O)O)cc(Br)c2c1C(=O)c1ccccc1C2=O` ?
inactive

Hello, I am checking results. What call was entered for `CCCN(CCC)S(=O)(=O)c1ccc(C(=O)O)cc1` ?
inactive

Hello, I am checking results. What call was entered for `CCCC(=O)OC(C)(C)Cc1ccccc1` ?
inactive

Hello, I am checking results. What call was entered for `COc1ccc(OC)c(N=Nc2c(O)ccc3ccccc23)c1` ?
inactive

Hello, I am checking results. What call was entered for `C[Si](C)(C)O[Si](C)(C)C` ?
inactive

Hello, I am checking results. What call was entered for `CCCCCCCC(=O)OCCCCCC` ?
inactive

Hello, I am checking results. What call was entered for `CCCCCC(=O)CC` ?
inactive

Hello, I am checking results. What call was entered for `OCC#CCO` ?
inactive

Hello, I am checking results. What call was entered for `COC(C)(C)CC(C)=O` ?
inactive

Hello, I am checking results. What call was entered for `Cc1ncc([N+](=O)[O-])n1CCO` ?
inactive

Hello, I am checking results. What call was entered for NCC1CCCC(CN)C1 (configuration not stated) ?
inactive

Hello, I am checking results. What call was entered for `CCc1ccc(O)cc1` ?
inactive

Hello, I am checking results. What call was entered for `C=CC(=C)CCCC(C)(C)OC(C)=O` ?
inactive

Hello, I am checking results. What call was entered for `CCCCCCC(C)(C)S` ?
inactive

Hello, I am checking results. What call was entered for C#CC(C)N(C)C(=O)Nc1ccc(Cl)cc1 (configuration not stated) ?
inactive

Hello, I am checking results. What call was entered for CC(C)=CCCC(C)CC(=O)O (configuration not stated) ?
inactive

Hello, I am checking results. What call was entered for CCOc1ccc(NC(=O)CC(C)O)cc1 (configuration not stated) ?
inactive

Hello, I am checking results. What call was entered for `O=C(O)CCCCCCCCC(=O)O` ?
inactive

Hello, I am checking results. What call was entered for `COc1cc(C(C)C)ccc1C` ?
inactive

Hello, I am checking results. What call was entered for `NCCNc1cccc2ccccc12` ?
inactive

Hello, I am checking results. What call was entered for `C=C(C#N)C(=O)OCC` ?
inactive

Hello, I am checking results. What call was entered for `CCO/C=C1\N=C(c2ccccc2)OC1=O` ?
inactive

Hello, I am checking results. What call was entered for `CCCCCCCCCC(=O)OC` ?
inactive

Hello, I am checking results. What call was entered for `Nc1ccc(NCCO)c([N+](=O)[O-])c1` ?
inactive
